Ref: patent US20190352341

# TARGET DESC: HSC70 (bovine, UniProt P19120)
# Sequence (P19120 2-650): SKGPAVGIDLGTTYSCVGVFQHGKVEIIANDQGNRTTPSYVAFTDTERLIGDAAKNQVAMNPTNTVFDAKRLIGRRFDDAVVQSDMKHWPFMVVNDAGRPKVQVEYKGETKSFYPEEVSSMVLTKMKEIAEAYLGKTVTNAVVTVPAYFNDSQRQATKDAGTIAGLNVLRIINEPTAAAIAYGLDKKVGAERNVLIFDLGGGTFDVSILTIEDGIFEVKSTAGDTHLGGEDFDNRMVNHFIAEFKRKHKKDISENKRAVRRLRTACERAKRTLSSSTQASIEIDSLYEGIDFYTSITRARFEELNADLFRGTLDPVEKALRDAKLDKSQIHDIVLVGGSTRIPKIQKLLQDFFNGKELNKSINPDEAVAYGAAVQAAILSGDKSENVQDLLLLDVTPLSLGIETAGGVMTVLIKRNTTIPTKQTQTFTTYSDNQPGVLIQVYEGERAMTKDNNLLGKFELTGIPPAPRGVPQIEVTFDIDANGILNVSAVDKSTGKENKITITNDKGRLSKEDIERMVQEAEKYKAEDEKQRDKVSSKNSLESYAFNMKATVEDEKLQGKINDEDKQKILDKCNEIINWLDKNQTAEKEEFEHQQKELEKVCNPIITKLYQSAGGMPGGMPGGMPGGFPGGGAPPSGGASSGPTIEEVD
# ASSAY PROCEDURE: SPR, 25C pH 7.4
Square brackets hold non-standard residues; d marks the D form. Ends that are not written are not given here. pS = N[C@@H](COP(=O)(O)O)C(=O)O
RECORDED METRIC: pKd
Answers are plain numbers, as −log10 of the molar value.

QUERY: Requested field: pKd. Item: RIHMVYSKR[pS]GKPRGYAFIEY [P140]
RESULT: 5.16
